Attribution: patent US20190055322A1

# tgt: PcrV of P. aeruginosa strain PA103 (on TTSS-induced bacteria) (Pseudomonas aeruginosa strain PA103)
# methodDescription: cell-based or functional assay
Reported Efficacy (%), P3X63 cytotoxicity, MOI 12 by item:

{"binder": "Nanobody 335 (5H01-40GS-1E11) (VHH) EVQLVESGGGLVQPGGSLRLSCAASGSTLDYYAIGWFRQAPGKEREGVSCTSNSGSTYYGGSVKGRFTASRDNAKNTVYLQMNSLRPEDTAVYYCVATIGCATLGGTLDVQRYYYRGQGTLVTVSSGGGGSGGGGSGGGGSGGGGSGGGGSGGGGSGGGGSGGGGSEVQLVESGGGLVQPGGSLRLSCAASGSTRSVNPMAWFRQAPGRQREWVATISRSGYATYADSVKGRFTISGDNAKSSVYLQMNSLKPEDTAVYYCVTGTYWGQGTLVTVSS", "unitName": "%", "Efficacy (%), P3X63 cytotoxicity, MOI 12": 100}
{"binder": "Nanobody 319 (13F07-40GS-6B05) (VHH) EVQLVESGGGLVQAGGSLRLSCAASGNTFSTNPMYWYRQAEGKQRELVASISSRGITNYADSVRGRFSISRDNTKDTVYLQMNSLKPEDTAVYYCRLASLSSGTVYWGKGTLVTVSSGGGGSGGGGSGGGGSGGGGSGGGGSGGGGSGGGGSGGGGSEVQLVESGGGLVQPGGSLRLSCAASGSIFSINTMGWYRQAPGKQRELVSTITSNLVPHYADSVQGRFTISRDNARNTVYLQMNSLKPQDTAHYYCNAWARSSGATPYTNYWGQGTLVTVSS", "unitName": "%", "Efficacy (%), P3X63 cytotoxicity, MOI 12": 100}
